Kindly state Relative binding activity, % for each of the entries shown.
# SYSTEM TESTED: T1, Biotin-huCGRPaSA (human, not fully specified; biotin (position not given))
# T1 construct: exact construct ('aSA') not explained; also called Biotin CGRPaSA; full-length (1-37) CGRP
# T1 peptide: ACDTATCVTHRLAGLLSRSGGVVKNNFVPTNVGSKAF
# ASSAY OVERVIEW: ELISA, supernatant; relative to chimeric C245
Express it in %; write the number only.

For the binder hu126 (antibody, V domains shown, 2B8 HC1-2/2B8 LC2-1) VH: QVQLVQSGAEVKKPGASVKVSCKASGYTFTDYNMHWVRQAPGQGLEWMGNIYPYNGGTVYNQKFNNRVTLTVDTSSSTAYMELRSLRSDDTAVYYCAREGLGGYWGQGTLVTVSS VL: DIVLTQSPDSLAVSLGERATINCQASQNIDGNTYMNWYQQKPGQPPKVLIYSIFNLESGVPDRFSGSGSGTDFTLTISSLQAEDVAVYYCQQSNDYPYTFGQGTKLEIK , what Relative binding activity, % is on record?
79

For the binder hu73 (antibody, V domains shown, 1F5 HC-4/1F5 LC1-4) VH: QVQLVQSGSELKKPGASVKVSCKASGYTFTDFNMHWVRQAPGQGLEWMGYIYPYNGDVVYNQNFTNRFVLSVDSSSSTAYLQISSLKAEDTAVYYCAREGLGGYWGQGTLVTVSS VL: DIVLTQSPDSLAVSLGERATINCKASQNIDFDGYAYMNWYQHKPGQPPKVLIYSVFNLESGVPDRFSGSGSGTDFTLTISSLQAEDVAVYYCQQSHEVPYTFGQGTKLEIK , what Relative binding activity, % is on record?
106

For the binder hu44 (antibody, V domains shown, 1F5 HC-2/1F5 LC1-1) VH: QVQLVQSGAEVKKPGASVKVSCKASGYTFTDFNMHWVRQAPGQRLEWMGYIYPYNGDVVYNQNFTNRVTLTVDTSSSTAYMELSSLRSEDTAVYYCAREGLGGYWGQGTLVTVSS VL: EIVLTQSPATLSLSPGERATLSCKASQNIDFDGYAYMNWYQQKPGQAPRVLIYSVFNLESGIPARFSGSGSGTDFTLTISSLEPEDFAVYYCQQSHEVPYTFGQGTKLEIK , what Relative binding activity, % is on record?
99

For the binder hu23 (antibody, V domains shown, 1B2 HC-2/2B8 LC2-2) VH: QVQLVQSGAEVKKPGASVKVSCKASGYTFTDYNMHWVRQAPGQRLEWMGYIFPYNGVAVYNRKFRSRVTLTVDTSSSTAYMELSSLRSEDTAVYYCAREGLGGYWGQGTLVTVSS VL: DVQLTQSPSFLSASVGDRVTITCQASQNIDGNTYMNWYQQKPGKAPKVLIYSIFNLESGVPSRFSGSGSGTEFTLTISSLQPEDFATYYCQQSNDYPYTFGQGTKLEIK , what Relative binding activity, % is on record?
17

For the binder hu190 (antibody, V domains shown, 3E5 HC-4/1F5 LC1-4) VH: QVQLVQSGAEVKKPGASVKVSCKTSGYTFTDYNMHWVRQAPGQRLEWMGYISPYNAGTAYNQKFKFRVTLTVDTSSSTAYMELSSLRSEDTAVYYCAREGLGGYWGQGTLVTVSS VL: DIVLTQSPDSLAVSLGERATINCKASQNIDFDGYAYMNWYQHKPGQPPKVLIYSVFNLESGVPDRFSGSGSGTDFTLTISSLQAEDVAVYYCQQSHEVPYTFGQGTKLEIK , what Relative binding activity, % is on record?
34

For the binder hu193 (antibody, V domains shown, 3E5 HC-4/3E5 LC-1) VH: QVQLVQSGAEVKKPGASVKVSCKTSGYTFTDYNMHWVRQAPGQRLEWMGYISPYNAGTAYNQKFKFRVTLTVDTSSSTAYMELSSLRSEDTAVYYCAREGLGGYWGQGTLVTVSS VL: DIVLTQSPDSLAVSLGERATINCKASQNIDYDGYTYLNWYQQKPGQPPKVLIYSIFNLESGVPDRFSGSGSGTDFTLTISSLQAEDVAVYYCQQSNEVPYTFGQGTKLEIK , what Relative binding activity, % is on record?
100

For the binder hu48 (antibody, V domains shown, 1F5 HC-2/2B8 LC2-1) VH: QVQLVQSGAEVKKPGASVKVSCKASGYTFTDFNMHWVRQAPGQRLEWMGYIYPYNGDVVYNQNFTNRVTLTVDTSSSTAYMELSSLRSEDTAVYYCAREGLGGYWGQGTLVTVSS VL: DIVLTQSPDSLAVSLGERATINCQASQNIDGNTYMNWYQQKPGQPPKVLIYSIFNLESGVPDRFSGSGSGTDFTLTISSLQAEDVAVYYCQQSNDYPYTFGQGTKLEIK , what Relative binding activity, % is on record?
40

For the binder hu138 (antibody, V domains shown, 2B8 HC1-3/1F5 LC1-4) VH: QVQLVQSGAEVKKPGASVKVSCKASGYTFTDYNMHWVRQAPGQGLEWMGNIYPYNAGTVYNQKFNNRVTLTVDTSSSTAYMELSRLRSDDTAVYYCAREGLGGYWGQGTLVTVSS VL: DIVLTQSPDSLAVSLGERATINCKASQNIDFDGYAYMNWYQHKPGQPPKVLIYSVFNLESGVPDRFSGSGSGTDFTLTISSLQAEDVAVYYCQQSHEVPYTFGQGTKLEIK , what Relative binding activity, % is on record?
102

For the binder hu226 (antibody, V domains shown, 3C1 HC-2/3C1 LC-1) VH: QVQLVQSGAEVKKPGASVKVSCKASGYTFTGYTMNWVRQAPGQRLEWMGLINPYIGNTHYNQKFKDRVTFTVDRSSSTAYMELSSLRSEDTAVYYCARELDSGFDYWGQGTLVTVSS VL: DVVMTQSPLSLPVTLGQPASISCRSSQNIVHSNGDTYLEWYQQRPGQSPRLLIYKVSNRFSGVPDRFSGSGSGTDFTLKISRVEAEDVGVYYCYQGSHVPWTFGQGTKLEIK , what Relative binding activity, % is on record?
65

For the binder hu56 (antibody, V domains shown, 1F5 HC-3/1A2 LC2-4) VH: QVQLVQSGAEVKKPGASVKVSCKASGYTFTDFNMHWVRQAPGQGLEWMGYIYPYNGDVVYNQNFTNRVTLTVDTSSSTAYMELRSLRSDDTAVYYCAREGLGGYWGQGTLVTVSS VL: DIQLTQSPSFLSASVGDRVTITCKASQNIDYDGYAYLNWYQQKPGKAPKVLIYSVFNLESGVPSRFSGSGSGTEFTLTISSLQPEDFATYYCQQSNEFPYTFGQGTKLEIK , what Relative binding activity, % is on record?
53
